# TEST_SYSTEM: human β-Secretase (Homo sapiens, UniProt P56817)
# Construct: soluble part of the human β-Secretase (AA 1-AA 460); Fc domain of IgG1 (C); made in house
# Sequence (P56817 22-460): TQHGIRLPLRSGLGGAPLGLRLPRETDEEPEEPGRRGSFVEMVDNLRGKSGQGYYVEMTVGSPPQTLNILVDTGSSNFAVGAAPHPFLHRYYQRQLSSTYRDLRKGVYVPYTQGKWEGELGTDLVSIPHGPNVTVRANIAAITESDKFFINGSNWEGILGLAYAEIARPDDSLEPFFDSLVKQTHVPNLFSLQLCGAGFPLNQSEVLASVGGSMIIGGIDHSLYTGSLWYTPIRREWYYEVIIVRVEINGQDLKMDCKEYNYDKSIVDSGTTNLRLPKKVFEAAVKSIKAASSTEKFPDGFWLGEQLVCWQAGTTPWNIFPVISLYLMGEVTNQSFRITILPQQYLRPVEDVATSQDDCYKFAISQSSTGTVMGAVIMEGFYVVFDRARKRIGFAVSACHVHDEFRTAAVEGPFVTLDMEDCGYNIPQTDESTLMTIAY
# EXPERIMENTAL_DETAILS: TR-FRET assay
# Assay type: biochemical
# CONDITION_DETAILS: sBACE-Fc, substrate (Europium)CEVNLDAEFK(Qsy7) 100 nM, pH4.5, unit not in table
Binary call on IC50 with cut-off 1000 nM: strictly below means yes (1), and equality or higher means no (0).

Answered examples (5):
[
  {
    "MOLECULE": "Cc1cc(C2(c3cccc(OCCCF)c3)N=C(N)c3ncccc32)cc(OC(F)F)n1 (stereo not drawn)",
    "GROUP": "yes (1)"
  },
  {
    "MOLECULE": "COc1ccc(C2(c3cccc(OCCCF)c3)N=C(N)c3ncccc32)cc1C(F)(F)F (stereo not drawn)",
    "GROUP": "yes (1)"
  },
  {
    "MOLECULE": "COc1ncc(C2(c3cccc(OCC(C)C)c3)N=C(N)c3ncccc32)cc1C (stereo not drawn) [Example 16, acetate]",
    "GROUP": "no (0)"
  },
  {
    "MOLECULE": "CC(C)CCOc1cccc(C2(c3ccncc3)N=C(N)c3ncccc32)c1 (stereo not drawn)",
    "GROUP": "no (0)"
  },
  {
    "MOLECULE": "COc1ccc(C2(c3cccc(OCCCF)c3)N=C(N)c3ncccc32)cc1Cl (stereo not drawn)",
    "GROUP": "yes (1)"
  }
]

// switching to the query molecule
Would you kindly verify if IC50 of COc1c(C)cc(C2(c3cccc(OCCCF)c3)N=C(N)c3ncccc32)cc1C (stereo not drawn) is strictly less than 1000 nM? yes (1)
